Measure name: melting point

Guide cases for melting point, answers given:
[
  {
    "Compound": "Cn1ncc(C(=O)c2ccc(Cl)cc2Cl)c1Cl",
    "Test result": "81 to 83 °C"
  },
  {
    "Compound": "CC(=O)OCC1OC(n2c3ncccc3c3c4c(c5c6cccnc6[nH]c5c32)C(=O)N(C)C4=O)C(OC(C)=O)C(OC(C)=O)C1OC(C)=O (stereo not given)",
    "Test result": "> 300 °C"
  }
]

Prompt: Specify measured melting point for CCN1C(=O)c2cccc(C)c2Oc2ncccc21 .
Response: 74 to 76 °C

Prompt: Specify measured melting point for CN(Cc1cc2c(=O)c(C(=O)NCc3ccc(Cl)cc3)cn(C)c2o1)CC(O)c1ccccc1 (stereo not given) .
Response: 118 to 121 °C

Prompt: Specify measured melting point for NP(N)(=S)NC1CCCCC1 .
Response: 148 to 150 °C

Prompt: Specify measured melting point for COC(=O)c1cc(CI)on1 .
Response: 91 to 95 °C

Prompt: Specify measured melting point for CCOC1(C)Oc2cccc(OC(=O)NC)c2O1 (stereo not given) .
Response: 97 to 98.5 °C

Prompt: Specify measured melting point for O=C(Nc1ccc(OC(F)(F)F)cc1)NC1CCN(C(=O)CN2CCN(Cc3ccccc3)CC2)CC1 .
Response: 178 to 183 °C

Prompt: Specify measured melting point for CC(C)n1c(=O)nc(-c2cccnc2)c2cc3c(cc21)OCO3 .
Response: 58 to 60 °C

Prompt: Specify measured melting point for c1ccc(CN2C[C@@H]3SCCC(c4ccccc4)(c4ccccc4)[C@@H]3C2)cc1 (racemic) .
Response: 130 °C

----------
Reported values of melting point for individual entries

Prompt: Specify measured melting point for CCOC(=O)C1=C(COCc2nnn[nH]2)NC(C)=C(C(=O)OC)C1c1cccc(Cl)c1Cl (stereo not drawn) .
Response: 112 to 114 °C

Prompt: Specify measured melting point for Nc1ccn([C@@H]2O[C@H](CO)[C@@H](O)/C2=C\F)c(=O)n1 .
Response: 166 °C

Prompt: Specify measured melting point for COc1cc(F)ccc1OCC#Cc1ccc(Cl)nc1 .
Response: 86 to 87 °C

Prompt: Specify measured melting point for Oc1ccc(O)c(C(F)(F)F)c1 .
Response: 114 to 115 °C

Prompt: Specify measured melting point for CC(O)c1cc2c(s1)C(C)(C)CCC2(C)C (stereo not drawn) .
Response: 53 to 55 °C

Prompt: Specify measured melting point for Cc1ccc(I)c(CC(=O)OC(C)C)c1 .
Response: 48 to 50 °C

----------
Measure name: melting point

Guide cases for melting point, answers given:
[
  {
    "Compound": "CC(C)(C)c1nn(-c2c(Cl)cc(C(F)(F)F)cc2Cl)c(Br)c1[N+](=O)[O-]",
    "Measure name": "melting point",
    "Test result": "105 to 108 °C"
  },
  {
    "Compound": "COc1ccc(C#N)cc1C(=O)NCCN1CCC(=C(O)c2ccc(F)cc2)CC1",
    "Measure name": "melting point",
    "Test result": "135 to 137 °C"
  },
  {
    "Compound": "COc1ccc(-c2ccc3c(C)c(OC)ccc3c2)cc1",
    "Measure name": "melting point",
    "Test result": "136 to 138 °C"
  },
  {
    "Compound": "Clc1cc(Cl)c2nccc(Br)c2c1",
    "Measure name": "melting point",
    "Test result": "164 to 166 °C"
  }
]

Proceed to the following item.
Prompt: Specify measured melting point for CC1(C)CC(N)c2cc(OCc3ccccc3)ccc2O1 (stereo not given) .
Response: 86 to 88 °C

----------
Reported values of melting point for individual entries

[
  {
    "Molecule": "CN(C)CCOc1ccc(C=NCCN=Cc2ccc(OCCN(C)C)cc2O)c(O)c1",
    "melting point": "92 to 94 °C"
  }
]

Prompt: Specify measured melting point for COc1ccc(C2=NN(C3CCNCC3)C(=O)C(C)(C)C2)cc1OC .
Response: 126 to 128 °C

Prompt: Specify measured melting point for CC#CN(C(C)=O)c1nc2ccccc2s1 .
Response: 138 to 139 °C

Prompt: Specify measured melting point for Oc1ccc(C2COC(c3c(F)cccc3F)=N2)cc1 (stereo not given) .
Response: 145 to 147 °C

Prompt: Specify measured melting point for CC(C)C(C)(C#N)N1C(=O)C=C(Nc2ccccc2CO)C1=O (stereo not given) .
Response: 39 to 45 °C

----------
Measure name: melting point

Guide cases for melting point, answers given:
[
  {
    "Chemical smiles": "CCCCN(C(=O)c1ccccc1)C1CC(C)(C)N(OC(=O)c2ccccc2)C(C)(C)C1",
    "melting point": "155 to 159 °C"
  },
  {
    "Chemical smiles": "N#Cc1cnc(-c2ccccc2OCC2CC2)[nH]c1=O",
    "melting point": "188 to 190 °C"
  },
  {
    "Chemical smiles": "CCOC(=O)c1ncc(Cl)cc1F",
    "melting point": "48 to 50 °C"
  },
  {
    "Chemical smiles": "O=C(O)Cc1ccn2c(=O)c(C(=O)O)ccc2c1",
    "melting point": "> 250 °C"
  },
  {
    "Chemical smiles": "CCCCc1nnc(-c2ccco2)n1Cc1ccc(NC(=O)c2ccccc2C(=O)O)cc1",
    "melting point": "170 to 171 °C"
  },
  {
    "Chemical smiles": "CN(C)CCCn1c2c(c3ccccc31)CCS(=O)(=O)CCC2",
    "melting point": "119 to 120 °C"
  },
  {
    "Chemical smiles": "O=c1[nH]c2ccccc2cc1-c1nnn[nH]1",
    "melting point": "301 to 303 °C"
  },
  {
    "Chemical smiles": "O=C(O)c1ccccc1-c1nc(-c2cc(C(F)(F)F)cc(C(F)(F)F)c2)no1",
    "melting point": "178 to 182 °C"
  },
  {
    "Chemical smiles": "COc1cc(OCCCN2CCc3cc(OC)c(OC)cc3C2)ccc1NC(=O)c1cccc2c(=O)c3cccc(C)c3[nH]c12",
    "melting point": "183 to 184 °C"
  }
]

Proceed to the following item.
Prompt: Specify measured melting point for Cc1csc2nc3cccc(C(F)(F)F)c3c(=O)n12 .
Response: 182 to 186 °C

----------
Measure name: melting point

Guide cases for melting point, answers given:
[
  {
    "Compound": "O=C(COc1ccc(Cl)cc1)N1Cc2cccn2Cc2ccccc21",
    "Test result": "120 to 122 °C"
  },
  {
    "Compound": "COc1cc2ncnc(N3CCC(C(=O)CN4C=CC(C)=NS4(=O)=O)CC3)c2cc1OC",
    "Test result": "172 to 175 °C"
  },
  {
    "Compound": "CCCc1nc2c(N)nc3cccnc3c2n1CCCC(C)N(OC)C(C)=O (stereo unspecified)",
    "Test result": "158 to 159 °C"
  },
  {
    "Compound": "CC(=O)N(C=CC(=Nc1ccccc1)Oc1ccccc1)c1ccccc1",
    "Test result": "120 °C"
  },
  {
    "Compound": "O=C(CCCCCS(=O)c1ccc(-c2ccc(Cl)cc2)cc1)NO (stereo unspecified)",
    "Test result": "108 to 110 °C"
  },
  {
    "Compound": "CS(=O)(=O)Nc1cc(C(=O)NNC(=O)c2occ(-c3ccccc3)c2-c2ccccc2)ccc1O",
    "Test result": "230 to 231 °C"
  }
]

Prompt: Specify measured melting point for CCOCCc1ccc(OCCNc2ncnc(COC)c2Cl)c(C)c1 .
Response: 39 to 41 °C

Prompt: Specify measured melting point for CCC(CC)Cn1c(=O)c(=O)[nH]c2cc(Cl)ccc21 .
Response: 253 to 255 °C

Prompt: Specify measured melting point for CCOC(=O)c1cc(SC(F)F)c(-c2ccc(Cl)cc2)[nH]1 .
Response: 113 to 117 °C

Prompt: Specify measured melting point for CCCCCCCCCCCCCCOc1ccc(C(=O)Cc2ccc([N+](=O)[O-])cc2)cc1 .
Response: 84 to 85 °C

Prompt: Specify measured melting point for CSC(=N)NC(c1ccccc1)c1ccc(C)cc1 (stereo unspecified) .
Response: 130 to 132 °C

Prompt: Specify measured melting point for CN(C)CCOc1ccc(C#N)cn1 .
Response: 58 °C

Prompt: Specify measured melting point for CCc1cccc(C)c1CNc1cc(Br)cc2c1nc(C)n2COCc1ccccc1 .
Response: 117 to 119 °C

Prompt: Specify measured melting point for OC(COc1cccc2[nH]ncc12)CN1CCC(COc2ccccc2)CC1 (stereo unspecified) .
Response: 141 to 142 °C

Prompt: Specify measured melting point for Cc1ccccc1CC(=O)c1cccc(I)c1 .
Response: 115 to 117 °C

Prompt: Specify measured melting point for Cc1oc(-c2ccccc2)nc1COc1ccc(COc2cc(CCC(=O)O)n(-c3ccccc3)n2)cc1 .
Response: 154 to 155 °C

Prompt: Specify measured melting point for CCOP(=O)(OCC)c1c(C)c2c(c(C)c1-c1c(OC)ccc3ccccc13)COC2 .
Response: 77.3 to 78.9 °C

Prompt: Specify measured melting point for CCCCN(Cc1ccccc1)C(=O)Nc1cccc(Cl)c1 .
Response: 69 to 70 °C

Prompt: Specify measured melting point for COc1nc2cc(Cl)cc(Cl)c2cc1Br .
Response: 135 to 138 °C

Prompt: Specify measured melting point for O=[N+]([O-])c1ccc(-c2nc3cc(OCc4ccccc4)ccc3s2)c(Cl)c1 .
Response: 156 to 157 °C

Prompt: Specify measured melting point for Cc1ccsc1C(=O)c1cccn1N .
Response: 42 to 44 °C

Prompt: Specify measured melting point for Cc1nc(-c2cnn(-c3c(Cl)cc(C(F)(F)F)cc3Cl)n2)[nH]c1S(=O)(=O)Cl .
Response: 254 to 255 °C

Source listed as a melting point compilation (Tetko et al.; mined from patent text by program, amines drawn as free bases though some values may be those of a salt).
